System: biotinyl-Leu-oxazolone
Assay: self-aminoacylation, catalytic enhancement (BLO) (fold over background); higher = more active; k-Seq, kA / k0A0; sequences stand for … in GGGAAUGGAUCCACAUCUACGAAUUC…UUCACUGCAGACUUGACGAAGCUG
This sample holds only a part of the variants without activity.
Class assignment keyed on self-aminoacylation, ranges bin A = under 1, bin B = from 1 up to 8, bin C = 8 and over

Look over these answered cases.
# biosequence, tested-on, category-label
measured = [
    ("AUUAGCCUGGUCAACGAGUGA [Fam2.1 aminoacylation ribozyme variant]", "biotinyl-Leu-oxazolone", "bin B"),
    ("AUUCACCUAGGGCACCGGGUG [Fam2.2 aminoacylation ribozyme variant]", "biotinyl-Leu-oxazolone", "bin B"),
    ("AAUCACCUAGGUCAUCGGGUG [Fam2.2 aminoacylation ribozyme variant]", "biotinyl-Leu-oxazolone", "bin C"),
    ("CCACACUUCAAGCAUUAGGUC [Fam1B.1 aminoacylation ribozyme variant]", "biotinyl-Leu-oxazolone", "bin A"),
]

Any idea which band AUUCACCUAGGUCAUCAGGGG [Fam2.2 aminoacylation ribozyme variant] is in?
bin B

Any idea which band AUUCGCCUAGGUCAUCGGGUG [Fam2.2 aminoacylation ribozyme variant] is in?
bin C

Any idea which band AUUCACCGAGCUCAUCGGGUG [Fam2.2 aminoacylation ribozyme variant] is in?
bin B

Any idea which band CUACAUCAAAAAAUCGGUCUG [Fam1A.1 aminoacylation ribozyme variant] is in?
bin A

Data provenance is the supplement of paper PMC9233669.
